# IC50 values compiled below
Target Under Test: Recombinant human PI3Kγ (full length human PI3K p110γ) (Homo sapiens, UniProt P48736)
Construct: full length human PI3K p110γ fused with a His6-tag at the C-terminus; His6 (C); purchased ALEXIS BIOCHEMICALS #201-055-C010; host or cells: S. frugiperda 9 insect cells
Sequence (P48736 whole entry, the tested form may be a part): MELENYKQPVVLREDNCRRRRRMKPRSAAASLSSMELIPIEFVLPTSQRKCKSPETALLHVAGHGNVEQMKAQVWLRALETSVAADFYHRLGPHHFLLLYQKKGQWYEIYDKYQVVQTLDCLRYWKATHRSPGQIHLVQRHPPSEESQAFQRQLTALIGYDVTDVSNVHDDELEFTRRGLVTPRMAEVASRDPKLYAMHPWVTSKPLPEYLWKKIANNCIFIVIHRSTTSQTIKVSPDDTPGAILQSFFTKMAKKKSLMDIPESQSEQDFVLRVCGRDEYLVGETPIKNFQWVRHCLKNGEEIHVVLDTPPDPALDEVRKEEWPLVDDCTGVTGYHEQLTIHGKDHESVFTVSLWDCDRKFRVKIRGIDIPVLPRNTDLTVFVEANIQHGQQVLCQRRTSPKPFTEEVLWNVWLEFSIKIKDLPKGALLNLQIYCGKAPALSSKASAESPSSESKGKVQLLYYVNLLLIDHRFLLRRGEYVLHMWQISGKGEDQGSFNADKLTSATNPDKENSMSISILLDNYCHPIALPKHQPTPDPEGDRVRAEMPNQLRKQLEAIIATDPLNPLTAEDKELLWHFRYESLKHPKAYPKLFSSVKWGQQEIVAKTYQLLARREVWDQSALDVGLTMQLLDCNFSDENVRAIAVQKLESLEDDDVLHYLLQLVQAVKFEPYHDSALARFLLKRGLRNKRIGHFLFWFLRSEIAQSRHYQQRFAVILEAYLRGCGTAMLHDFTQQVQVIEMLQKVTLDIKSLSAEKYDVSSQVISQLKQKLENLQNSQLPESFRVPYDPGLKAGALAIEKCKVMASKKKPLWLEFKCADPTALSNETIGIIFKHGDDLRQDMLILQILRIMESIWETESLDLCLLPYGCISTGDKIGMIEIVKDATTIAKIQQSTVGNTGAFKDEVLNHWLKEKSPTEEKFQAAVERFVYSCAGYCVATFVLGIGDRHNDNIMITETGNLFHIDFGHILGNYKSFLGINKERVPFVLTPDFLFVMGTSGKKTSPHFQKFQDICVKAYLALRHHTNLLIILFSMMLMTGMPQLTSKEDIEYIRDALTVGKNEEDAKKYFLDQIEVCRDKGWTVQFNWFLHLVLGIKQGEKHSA
Assay Info: Kinase assay of PI3Kγ (solid-phase lipid kinase assay)
Format: biochemical
Test Parameters: in vitro PI3K-γ inhibitory activity, class symbols; read-out: in vitro PI3K-gamma

Short answer for COc1cccc2c1N=C(NC(=O)c1cnccc1C(F)(F)F)N1CCN=C21 : IC50 was 100 to 500 nM

Short answer for Cc1cc(Br)c2c(c1)C1=NCCN1C(NC(=O)c1ccc3[nH]cnc3c1)=N2 : IC50 was 100 to 500 nM

Short answer for Nc1ncccc1C(=O)NC1=Nc2ccccc2C2=NCCN12 : IC50 was 100 to 500 nM

Short answer for O=C(NC1=Nc2cc(N3CCOCC3)ccc2C2=NCCN12)c1ccc2[nH]cnc2c1 : IC50 was 100 to 500 nM

---

Target Under Test: Recombinant human PI3Kγ (full length human PI3K p110γ) (Homo sapiens, UniProt P48736)
Construct: full length human PI3K p110γ fused with a His6-tag at the C-terminus; His6 (C); purchased ALEXIS BIOCHEMICALS #201-055-C010; host or cells: S. frugiperda 9 insect cells
Assay Info: Kinase assay of PI3Kγ (solid-phase lipid kinase assay)
Format: biochemical
Test Parameters: Table 1, isozyme not given; read-out: in vitro
Observed Property: IC50

# annotated cases, reported IC50 shown
{"Structure As Smiles": "O/C(=C\\C1=Nc2c(OCCN3CCOCC3)cccc2C2=NCCN12)c1cccnc1", "Test Value": "0.1 to 0.5 µM"}
{"Structure As Smiles": "Cl.O/C(=C\\C1=Nc2ccccc2C2=NCCN12)c1nccs1", "Test Value": "0.1 to 0.5 µM"}

Short answer for CNc1ccc(/C(O)=C/C2=Nc3ccccc3C3=NCCN23)cn1 : IC50 was < 0.1 µM

Short answer for CN(CCO)c1ccc2c(c1)N=C(/C=C(\O)c1ccc3[nH]cnc3c1)N1CCN=C21.Cl : IC50 was 0.1 to 0.5 µM

Short answer for COc1c(C)ccc2c1N=C(/C=C(\O)c1ccc(NC(C)=O)nc1)N1CCN=C21.Cl : IC50 was < 0.1 µM

Short answer for COc1c(OCCN2CCCCC2)ccc2c1N=C(/C=C(\O)c1cccnc1)N1CCN=C21 : IC50 was 0.1 to 0.5 µM

Short answer for Cc1ccc(/C(O)=C/C2=Nc3ccccc3C3=NCCN23)cn1 : IC50 was 0.1 to 0.5 µM

---

# melting point values compiled below

# annotated cases, reported melting point shown
{"Structure As Smiles": "CS(=O)(=O)Nc1cncc(C(=O)NC2=Nc3ccccc3C3=NCCN23)c1", "melting point": "265 to 269 °C"}
{"Structure As Smiles": "CCn1nc(C)cc1C(=O)NC1=Nc2ccccc2C2=NCCN12.Cl", "melting point": "271 to 272 °C"}
{"Structure As Smiles": "COc1cc2c(cc1OC)C1=NCCN1C(NC(=O)c1cc(C)nn1C)=N2", "melting point": "236 to 237 °C"}
{"Structure As Smiles": "COc1ccc(C(=O)NC2=Nc3ccccc3C3=NCCN23)cc1", "melting point": "300 °C (dec.)"}
{"Structure As Smiles": "O=[N+]([O-])c1cc(/C(O)=C/C2=Nc3ccccc3C3=NCCN23)cs1", "melting point": "255 to 258 °C"}
{"Structure As Smiles": "COc1ccc2c(c1)C1=NCCN1C(/C=C(\\O)c1cccnc1)=N2", "melting point": "199 °C"}
{"Structure As Smiles": "COc1c(OCC(=O)N(C)C)ccc2c1N=C(/C=C(\\O)c1cccnc1)N1CCN=C21.Cl", "melting point": "205 °C (dec.)"}
{"Structure As Smiles": "N#Cc1ccc(C(=O)NC2=Nc3ccccc3C3=NCCN23)cc1.O=C(O)C(F)(F)F", "melting point": "248 to 250 °C"}

Short answer for Cl.O=C(NC1=Nc2ccccc2C2=NCCN12)c1ccco1 : melting point was 311 °C (dec.)

Short answer for O=C(NC1=Nc2ccccc2C2=NCCN12)c1ccc2ncsc2c1 : melting point was 303 to 305 °C

Short answer for COC(=O)c1ccc(C(=O)NC2=Nc3ccccc3C3=NCCN23)cc1 : melting point was 253 to 255 °C

Short answer for COc1cc(OC)c2c(c1)C1=NCCN1C(NC(=O)c1ccc(NC(C)=O)nc1)=N2.Cl : melting point was 270 °C (dec.)

Short answer for O/C(=C\C1=Nc2ccccc2C2=NCCN12)c1cnccn1 : melting point was 233 to 235 °C
